The reported numbers originate from ChEMBL document CHEMBL3137667.

Condition Details: human;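 further: steatosis confirmed by histopathology, value is the count of indexed references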
Consider the following molecules and their measured Hepatotoxicity (steatosis) readings.
Give only the figure.

Example cases with answers are listed next.
Molecule	Hepatotoxicity (steatosis)
CCn1nc(C(=O)O)c(=O)c2cc3c(cc21)OCO3 [CINOXACIN]	0
CCN(CC)CCOc1ccc(C(=C(Cl)c2ccccc2)c2ccccc2)cc1 [CLOMIPHENE]	0
O=C(NCC1CCCCN1)c1cc(OCC(F)(F)F)ccc1OCC(F)(F)F (stereo not given) [FLECAINIDE]	0
CC(=O)Nc1ccc(/C=N/NC(N)=S)cc1 [AMITHIOZONE]	2

Lab book: Hepatotoxicity (steatosis) of C=C(CC)C(=O)c1ccc(OCC(=O)O)c(Cl)c1Cl [ETHACRYNIC ACID] noted as 0
